# Tested on: CopASO;ParESO (in purified ParESO-CopASO complex) (Shewanella oneidensis (prophage CP4So);Shewanella oneidensis (prophage CP4So))
# Measurement Notes: ITC
# Settings: ITC: 20 mM Tris pH 8.0, 100 mM NaCl, 5% (v/v) glycerol, 20 °C; 100-400 uM DNA injected into 10-100 uM protein; one-site model
Experimental Readout: Kd
Write the numeric value and append its unit.

Prompt line: Entry TAAGGTATTACCTAGTAGTACTAAG (double strand) [25 bp copASO-parESO promoter duplex] : reported Kd = ?
Response line: 0.66 µM
